Tested system: E-selectin (Homo sapiens)
Measurement notes: Binding affinity to E-selectin relative to (2S,4S,5R,6R)-5-acetamido-2-((2R,3S,4S,5R,6R)-3,5-dihydroxy-2-(hydroxymethyl)-6-((1R,2R)-2-((2S,3S,4R,5S,6S)-3,4,5-trihydroxy-6-methyl-tetrahydro-2H-pyran-2-yloxy)cyclohexyloxy)-tetrahydro-2H-pyran-4-yloxy)-4-hydroxy-6-((1R,2R)-1,2,3-trihydroxypropyl)-tetrahydro-2H-pyran-2-carboxylic acid
Readout name: Activity

C[C@@H]1O[C@@H](O[C@@H]2CCCC[C@H]2O[C@@H]2O[C@H](CO)[C@H](O)[C@H](O[C@H](CC34CC5CC(CC(C5)C3)C4)C(=O)O)[C@H]2O)[C@@H](O)[C@H](O)[C@@H]1O = > 10
C[C@@H]1O[C@@H](O[C@@H]2CCCC[C@H]2O[C@@H]2O[C@H](CO)[C@H](O)[C@H](O[C@H](Cc3ccccc3)C(=O)O)[C@H]2O)[C@@H](O)[C@H](O)[C@@H]1O = > 10
C[C@@H]1O[C@@H](O[C@@H]2CCCC[C@H]2O[C@@H]2O[C@H](CO)[C@H](O)[C@H](O[C@H](CC3CCCCC3)C(=O)O)[C@H]2O)[C@@H](O)[C@H](O)[C@@H]1O = > 10
C[C@@H]1O[C@@H](O[C@@H]2CCCC[C@H]2O[C@@H]2O[C@H](CO)[C@H](O)[C@H](O[C@H](C)C(=O)O)[C@H]2O)[C@@H](O)[C@H](O)[C@@H]1O = > 10
C[C@@H]1O[C@@H](O[C@@H]2CCCC[C@H]2O[C@@H]2O[C@H](CO)[C@H](O)[C@H](OCC(=O)O)[C@H]2O)[C@@H](O)[C@H](O)[C@@H]1O = > 10
